# target.or.test.system: recombinant human UGT1A3 (Homo sapiens, UniProt P35503)
# Sequence (P35503 29-534): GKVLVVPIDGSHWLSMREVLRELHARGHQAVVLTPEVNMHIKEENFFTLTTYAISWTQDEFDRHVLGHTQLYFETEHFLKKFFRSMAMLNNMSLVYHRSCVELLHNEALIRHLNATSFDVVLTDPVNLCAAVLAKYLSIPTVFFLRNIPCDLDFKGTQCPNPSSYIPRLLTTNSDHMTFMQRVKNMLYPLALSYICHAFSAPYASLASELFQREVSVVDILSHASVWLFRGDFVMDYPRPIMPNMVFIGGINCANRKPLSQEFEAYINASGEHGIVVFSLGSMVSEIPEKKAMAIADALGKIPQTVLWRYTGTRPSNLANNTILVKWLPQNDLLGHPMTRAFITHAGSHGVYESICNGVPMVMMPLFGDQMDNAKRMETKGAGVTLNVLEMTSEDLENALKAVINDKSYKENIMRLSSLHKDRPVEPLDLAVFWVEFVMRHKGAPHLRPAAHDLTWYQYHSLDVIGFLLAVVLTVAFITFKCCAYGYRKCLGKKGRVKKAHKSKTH
# test.method.notes: Glucuronidation by recombinant UGT1A3 (activity screen and steady-state kinetics)
# details: 5 μg membrane protein, UDP-GlcUA 4 mM, 37° C., 30 min, TLC
observation.type: Km (µM)
Give just the numeric value; µM need not be written.

[Q] What value of measured Km is listed for CCCCCc1cc(O)c2c(c1)OC(C)(C)[C@@H]1CCC(C(=O)O)=C[C@@H]21 [COOH-THC, (−)-11-nor-9-carboxy-Δ^9-THC] ?
[A] 68

Where do the numbers come from? From patent US8410064B2.
